# Test system: Pa16c cells
# Method: Pa16c cell proliferation assay (resazurin)
# Assay type: cell-based
# Test conditions: Table 2, inhibition of cell proliferation

{"Molecule": "CNC(=O)c1cc(-c2cncc(-c3cc(NC(=O)c4cc(C5CC5)cnn4)ccc3C)c2)ncn1 [Example 24]", "Target or test system": "Pa16c cells", "IC50": "1000 to 10000 nM"}
{"Molecule": "CNC(=O)c1cc(-c2cc(-c3cc(NC(=O)c4cc(C(F)(F)F)cnn4)ccc3C)nc(N[C@H](C)CO)n2)ccn1 [Example 25]", "Target or test system": "Pa16c cells", "IC50": "1000 to 10000 nM"}
{"Molecule": "CNC(=O)c1cc(-c2cc(-c3cc(NC(=O)c4cc(C(F)(F)F)cnn4)ccc3C)cc(OCCO)n2)ccn1 [Example 35]", "Target or test system": "Pa16c cells", "IC50": "100 to 500 nM"}
